tested on: Staphylococcus aureus X400; test: MIC, standard agar-dilution assay; type: cell-based; conditions: Staphylococcus aureus X400; Methicillin-resistant strain; agar dilution; read-out: MIC
Exercise: for every item that follows, state its recorded MIC.
Please respond with the number in µg/mL and leave the unit unwritten.

Please state recorded MIC (tested on Staphylococcus aureus X400) of CCC1OC(=O)CC(O)C(C)C(OC2OC(C)C(O)C(N(C)C)C2O)C(CCOc2ccccc2)CC(C)C(=O)C=CC(C)=CC1COC1OC(C)C(OC(=O)CN2CCCC2)C(OC)C1OC (centres unmarked)
1

Please state recorded MIC (tested on Staphylococcus aureus X400) of CCC(C)CN(CC)CCC1CC(C)C(=O)C=CC(C)=CC(COC2OC(C)C(OC(C)=O)C(OC)C2OC)C(CC)OC(=O)CC(O)C(C)C1OC1OC(C)C(O)C(N(C)C)C1O (centres unmarked)
4

Please state recorded MIC (tested on Staphylococcus aureus X400) of CCC1OC(=O)CC(O)C(C)C(OC2OC(C)C(O)C(N(C)C)C2O)C(CCOc2ccccc2)CC(C)C(=O)C=CC(C)=CC1COC1OC(C)C(OC(=O)CN2CCN(C)CC2)C(OC)C1OC (centres unmarked)
4

Please state recorded MIC (tested on Staphylococcus aureus X400) of CCC1OC(=O)CC(O)C(C)C(OC2OC(C)C(O)C(N(C)C)C2O)C(CCOc2ccccc2)CC(C)C(=O)C=CC(C)=CC1COC1OC(C)C(OC(=O)CNCc2ccccc2)C(OC)C1OC (centres unmarked)
2

Please state recorded MIC (tested on Staphylococcus aureus X400) of CCC1OC(=O)CC(O)C(C)C(OC2OC(C)C(O)C(N(C)C)C2O)C(CCOc2ccccc2)CC(C)C(=O)C=CC(C)=CC1COC1OC(C)C(OC(C)=O)C(OC)C1OC (centres unmarked)
2
